system: Plasmodium falciparum; experiment: GSK_TCMDC: Inhibition of Plasmodium falciparum Dd2 in whole red blood cells, using parasite LDH activity as an index of growth. Test compounds present at 2uM; assay type: functional
Overview of recorded Inhibition for various molecules

{"columns": ["Molecule", "Inhibition / %"],
 "data": [
  ["O=C(O)C(F)(F)F.c1cc(CN2CCC(CCN3CCCCC3)CC2)cc(-c2cccc(-c3nc4ccccc4[nH]3)c2)c1", 100],
  ["O=C(O)C(F)(F)F.O=S(=O)(NCCN1CCCC1)c1ccc(-c2ccc(CNCc3ccc(F)cc3)cc2)cc1", 44],
  ["CN(C)CCCOc1ccc(CCNCc2cccc(Oc3ccc(Cl)cc3)c2)cc1.O=C(O)C(F)(F)F", 26],
  ["Cc1nc(-c2ccncc2)sc1C(=O)Nc1ccc(Cl)cc1C(=O)Nc1ccc(Cl)cc1", 47],
  ["COCCNCc1cccc(-c2cccc(CNC3CCN(Cc4ccccc4)CC3)c2)c1.O=C(O)C(F)(F)F", 99],
  ["Cc1nnsc1C(=O)Nc1cccc(-c2cccc(-c3nc4cccc(C)c4[nH]3)c2)c1", 80],
  ["Cc1ccccc1C1CCN(C2CCC(NC(=O)/C=C/c3ccccc3C(F)(F)F)CC2)CC1 (centres undefined)", 6],
  ["CCCC(C)N(Cc1ccc(C(C)(C)C)cc1)C(=O)c1cccc(C#N)c1 (centres undefined)", 45],
  ["CSC1=NC(=Nc2c(C)cccc2C)C2(CCC(C(C)(C)C)CC2)N1c1ccc(O)cc1.I (centres undefined)", 93],
  ["Cc1cc(OC(C)C(=O)N2CCc3ccccc32)ccc1Cl (centres undefined)", 54],
  ["CC(CN(C)C)C(=O)Nc1ccc(-c2ccc(-c3nc4ccccc4[nH]3)s2)cc1 (centres undefined)", 86],
  ["COc1cccc2c(N/N=C/c3ccc([N+](=O)[O-])cc3)ccnc12", 16],
  ["Clc1cc(Cl)c2c(c1)C(NCCCNc1nc3ccccc3[nH]1)CCO2 (centres undefined)", 31],
  ["C=CCc1cc(Br)ccc1OCCCOc1c(N)nc(N)nc1N.Cl", 0],
  ["COc1ccc(-c2cccc(NC(=O)c3ccc(C#N)cc3)c2)cc1CN1CCN(C)CC1.O=C(O)C(F)(F)F", 2],
  ["O=C(O)C(F)(F)F.c1cncc(CCNCc2ccc(-c3ccc(CNC4Cc5ccccc5C4)cc3)cc2)c1", 29],
  ["CCOC(=O)c1cc2c(CCN3C(=O)c4ccccc4C3=O)cn(C)c2cc1-c1ccncc1", 90],
  ["COc1cc2c(cc1N(C(C)C)S(=O)(=O)c1sc3ccc(Cl)cc3c1C)CCNCC2.Cl", 70],
  ["CCNC(=O)Nc1cccc(-c2cccc(-c3nc4cc(C(F)(F)F)ccc4[nH]3)c2)c1", 32]
]}

# credit: ChEMBL document CHEMBL1157539
